- experimental system: Arginase-2, mitochondrial (Homo sapiens)
- Sequence (whole entry): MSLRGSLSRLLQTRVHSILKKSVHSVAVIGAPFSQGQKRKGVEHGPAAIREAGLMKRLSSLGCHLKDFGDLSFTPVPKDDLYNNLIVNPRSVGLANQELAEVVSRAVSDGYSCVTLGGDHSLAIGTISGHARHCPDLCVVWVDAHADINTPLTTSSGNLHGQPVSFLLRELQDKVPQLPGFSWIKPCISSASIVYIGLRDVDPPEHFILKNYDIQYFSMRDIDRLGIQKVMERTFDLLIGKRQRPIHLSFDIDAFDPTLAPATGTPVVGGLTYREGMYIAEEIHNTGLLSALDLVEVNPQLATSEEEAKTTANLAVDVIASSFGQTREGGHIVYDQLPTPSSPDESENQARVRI
- assay overview: in vitro enzyme assay to detect the production of urea directly proportional to the activity of Arginase II; also: in the data most compounds retested in dose-response had high values
- Assay type: functional
- Design: scale not given: direction of the effect not stated beside the values
- stated conditions: 33.3 µM
Answer each item with its documented Percent Effect.
Numeric only. Scale: %

Consider the compound COc1cc(C)nc(N2CCN(C(=O)CN(C)C3CC3)CC2)n1 and give its measured Percent Effect.
-1.23

Dear colleague, I am looking for the recorded Percent Effect of the following compound: CCN(C)Cc1cnc(S(=O)(=O)CC)n1CCOC
2.45

Find the recorded Percent Effect belonging to Cc1ccn(-c2cccc(C(=O)N3CCCC(n4ccnc4C)C3)c2)n1 (stereo not drawn) and report it.
-3.89

Can you share its Percent Effect? I mean this compound: COCCN1CCN(Cc2ccc(F)c(C)c2)[C@H]2CS(=O)(=O)C[C@H]21
10.8

Any idea what Percent Effect was measured for Cc1cccc(CN2CCC3(CCN(c4ccccn4)C3)C2=O)c1 (stereo not drawn) ?
-0.913

Fill blank: measured Percent Effect of the compound Cn1ncc2c1NC(=O)CC2c1ccc(O)cc1 (stereo not drawn) is ____.
-6.64

Query (compound): Cn1cc(CN2CCCC3(CCCN3S(C)(=O)=O)C2)cn1 (stereo not drawn) ; field requested: Percent Effect
2.02

I am curious: what Percent Effect value has been reported for Cc1nc(C(=O)N2CCC(Cc3cnc4[nH]ccc4c3)C2)co1 (stereo not drawn) ?
-4.87

Value lookup for Percent Effect; key = COc1ncc(C2CC(=O)NCc3nc4ccccn4c32)cn1 (stereo not drawn)
1.75

For Cc1cccc(CN2C(=O)CCC23CCN(c2ncc(F)cn2)CC3)n1 , what is its reported Percent Effect?
5.02

Entry Cc1cc(C(=O)NCC(C)N2CCc3ccccc32)no1 (stereo not drawn) has what Percent Effect?
-4.3

Please give the measured Percent Effect for this compound: Cc1ccc(CN2CCCn3c(nc(CN4CCCC4)cc3=O)C2)s1
-2.02

What does the data say about its Percent Effect? Entry: Cc1cc(NC(=O)NCC2CCOC2)no1 (stereo not drawn)
9.76

Value lookup for Percent Effect; key = Cc1cc(N2CCC(NC(=O)C3CC3)CC2)nc(-c2ccncc2)n1
-1.43

Looking for the measured Percent Effect of Cc1nn(C)c(N(C)C)c1CNC(C)c1cccc(OC(C)C)c1 (stereo not drawn) , can you help?
-7.58

Recorded Percent Effect of COCC1CC2(CCN(Cc3cnn(C)c3)CC2)CN1C(C)C (stereo not drawn) , please.
-4.45

Find the recorded Percent Effect belonging to COc1ccc(-c2nc(CN3CCc4c(ncn4C)C3)cs2)cc1 and report it.
0.41

Could you tell me which Percent Effect is on file for CCn1ccnc1CN1CCN(CC(O)c2ccccc2)CC1 (stereo not drawn) ?
4.51

Given the compound NC[C@H]1CC[C@H](C(NC(=O)c2ccccc2)c2ccccn2)CC1 (stereo partly drawn) , what is its reported Percent Effect?
-2.21

Would you mind telling me what Percent Effect value was observed for CC[C@@H]1N(Cc2ccsc2)CCC[C@]12CCC(=O)N2CCOC ?
4.11

Returns the measured Percent Effect for the input compound. Input: Cc1[nH]c2ccccc2c1-c1ccnc(NC[C@H](O)CO)n1
-5.32

# get_value(readout='Percent Effect', item= O=C(CCOc1ccc(Cl)cc1)N1CCN(c2cnccn2)CC1 )
0.615

Bench note: what Percent Effect did COc1ccccc1CCN(C)C(=O)NC(C)c1nncn1C (stereo not drawn) show?
0

Name the recorded Percent Effect for Cc1n[nH]c(C)c1C1COCCN1C(=O)c1ccccc1 (stereo not drawn) .
8.61

I would be grateful if you could share the reported Percent Effect for O=C(c1ccc(F)cc1)N1CCC2(CCCN2CC2CC2)CC1 .
5.94

Would you mind telling me what Percent Effect value was observed for Cc1nn(-c2ccccc2)c(C)c1CNC1CCc2ncnn2C1 (stereo not drawn) ?
8.2

Quick one: Percent Effect of COc1ccc2c(c1)OCC(CNC(=O)c1ccncc1)C2 (stereo not drawn) ?
43.7

State the recorded Percent Effect for this entry: CCCC(=O)N1CCC2(CC1)CC(NC(C)=O)c1ccccc1O2 (stereo not drawn)
7.31

Recorded Percent Effect of c1cnnc(N2CCCC2CNCc2ccsc2)c1 (stereo not drawn) , please.
4.1

Would you mind telling me what Percent Effect value was observed for Cc1cc(NC(=O)CCN(CC2CCOC2)C2CC2)no1 (stereo not drawn) ?
-2.22

Quick check: Percent Effect of CN1CCN(CCO)C(=O)C12CCN(Cc1ccsc1)CC2 ?
1.83

Could you tell me which Percent Effect is on file for CCS(=O)(=O)c1ncc(CN(C)Cc2ccccn2)n1CCOC ?
2.45

Record request: Percent Effect value, item CC(CC#N)NC(=O)c1cc(Br)c2c(c1)OCCO2 (stereo not drawn)
3.1

Which measured Percent Effect value corresponds to COc1cc(N2CCCC(c3nccn3Cc3cscn3)C2)nc(N)n1 (stereo not drawn) ?
-22.7

I'd like to know its Percent Effect. The compound in question is Cc1cc(C)n2cc(CN3CCCC3Cn3nc(C)nc3C)nc2n1 (stereo not drawn)
3.1

Can you share its Percent Effect? I mean this compound: Cc1nc(C)n(CC2CCCN2Cc2nc3ccccc3nc2C)n1 (stereo not drawn)
1.33

For the compound O=C(c1ccc2c(c1)OCO2)N1CCN(c2cnccn2)CC1 , what Percent Effect is on record?
4.51

For the compound shown here, CN(Cc1ccccc1)CC(O)Cn1cnc2ccccc2c1=O (stereo not drawn) , give the reported Percent Effect.
9.84

Look up Percent Effect for this compound: CC(C)C(NC(=O)N1CCN(c2ccc(Cl)cc2)CC1)C(=O)NC1CC1 (stereo not drawn)
-3.15

# query: Percent Effect of entry NC(=O)C1CCC(NC(=O)COc2ccc(Cl)c(Cl)c2)CC1 (stereo not drawn)
-5.94

Recorded Percent Effect for CN(Cc1ccccc1)C(=O)c1nc(S(C)(=O)=O)n2ccccc12 , please?
-1.23

So what does the record say about Percent Effect for O=C(c1cc(Cl)c2c(c1)OCCO2)N1CCCC(n2cncn2)C1 (stereo not drawn) ?
1.77

What value of Percent Effect has been recorded for this entry: COCCc1ncc(CN2CCC(Oc3ccccc3C)CC2)cn1
-0.443

Bench note: what Percent Effect did CC(=O)N1C[C@@H](c2ccsc2)[C@@H]2CN(Cc3ccccc3)CC[C@@H]21 show?
0.885

Recorded Percent Effect for COc1cccc(CN2CCCC3(CCN(C(=O)[C@H]4CCCO4)C3)C2)c1 (stereo partly drawn) , please?
3.65

Query (compound): CC(Cn1cccn1)NC(=O)Cc1cccs1 (stereo not drawn) ; field requested: Percent Effect
3.99

Which Percent Effect reading was recorded for the compound CN(C)C[C@@H]1C[C@@H]2CN(C(=O)c3ccoc3)CC[C@@H]2N1CC1CC1 ?
0.913

Requested read-out: Percent Effect. Entry: COc1ccc(CN2CCC3(CC(Nc4ccncn4)C3)C2)c(OC)c1 (stereo not drawn)
-3.54

---

- experimental system: AMP-activated protein kinase, AMPK (Homo sapiens) (UniProt P54646+O43741+P54619+Q9UGJ0+Q9Y478+Q13131+Q9UGI9)
- assay overview: AMP-dependent Kinase enzyme assay. An in vitro enzyme assay that detects ADP turnover that is directly proportional to AMPK activity. This uses naive AMPK that is activated during the assay with MK-8722
- Assay type: functional
- Design: scale not given: direction of the effect not stated beside the values
- stated conditions: 30 µM
So I've got a bunch of molecules here, and I need their Percent Effect values.
Write the value in % as a bare number.

Fill blank: measured Percent Effect of the molecule CC(C)C(CCO)NC(=O)Nc1ccc(-c2csnn2)cc1 (stereo unspecified) is ____.
13.2

Record request: Percent Effect value, item Cc1nn(C)cc1NC(=O)CN1CCN(C2CCCC2)C(=O)C1
16.5

Could you tell me which Percent Effect is on file for Cc1cc(C)c2[nH]c(C(=O)NCCN3CCCC3=O)c(C)c2c1 ?
13.3

Suppose we examine the molecule Cc1nc(CN(C)S(=O)(=O)c2ccccc2Br)no1 ; what Percent Effect value has been reported?
6.12

What value of Percent Effect has been recorded for this entry: Cn1cccc1CN(C(=O)Cc1cccs1)C1CC1
-4.04

// returns reported Percent Effect for input CCCNC(=O)CNC(=O)CC1CCCc2cc(OC)ccc21 (stereo unspecified)
-4.21

Values were extracted from ChEMBL document CHEMBL3988442.
